Origin of values: the supplement of paper PMC10065799

- Tested on: Fer (mouse);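 also: 11-residue human phosphosite peptides and single-mutation variants displayed on the E. coli surface, counted by deep sequencing, each peptide's frequency after selection divided by its frequency in the unselected input library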;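 also: frequency after pTyr selection over input frequency; kinase dosed for 20-30% of maximal phosphorylation in three min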
- PROCEDURE_SUMMARY: phosphorylation enrichment, bacterial display (enrichment ratio); higher = better substrate or ligand; peptides without Tyr show the background
Label 0.0 if phosphorylation enrichment falls below 0.7; label 1.0 in every other case.

As a guide, the following entries are already answered.
>  <RESIDUES>
KHCEDYVFSYN [DSC1_Y846_C848F]

>  <ASSIGNED_CATEGORY>
0.0

$$$$
>  <RESIDUES>
FASALYRQRRS [FGF11_Y162_YF]

>  <ASSIGNED_CATEGORY>
1.0

$$$$
>  <RESIDUES>
RWGQKYMTAVV [CYBA_Y72]

>  <ASSIGNED_CATEGORY>
0.0

$$$$
>  <RESIDUES>
ALVDTYCRHNF [HLA-DRB1_Y107_A103L_YF]

>  <ASSIGNED_CATEGORY>
0.0

$$$$
>  <RESIDUES>
DFPGIYSGFDD [POLR1C_Y33_N32I_YF]

>  <ASSIGNED_CATEGORY>
1.0

$$$$

Could you please find out whether YIILIYAMKKK [SLCO1B1_Y645] has phosphorylation enrichment that meets 0.7 or exceeds it?
0.0
